Tested on: LU99A
Assay: relative viability (nuclei count vs DMSO), 5 days (fraction); higher = more cells survive
Details: first compound 0.4 µM
Here the recorded relative viability is given for each entry.
Respond using a number only.

Compound	Measure	Recorded value
O=C(O)c1ccc(-c2c[nH]c3ncc(-c4ccccc4)cc23)cc1C1CCCC1 + Nc1nc2[nH]cc(CCc3ccc(C(=O)N[C@@H](CCC(=O)O)C(=O)O)cc3)c2c(=O)[nH]1 [Pemetrexed] (partner 0.2 µM)	relative viability	0.187
O=C(O)c1ccc(-c2c[nH]c3ncc(-c4ccccc4)cc23)cc1C1CCCC1 + COc1cccc2cc(-c3nc([C@H]4CC[C@H](C(=O)O)CC4)n4ncnc(N)c34)[nH]c12 [OSI-027] (partner 0.5 µM)	relative viability	0.364
O=C(O)c1ccc(-c2c[nH]c3ncc(-c4ccccc4)cc23)cc1C1CCCC1 + N=C(N)NC(=N)NCCc1ccccc1 [Phenformin] (partner 250 µM)	relative viability	0.865

Please turn your attention to the following entry.
Query: Bench note: what relative viability did O=C(O)c1ccc(-c2c[nH]c3ncc(-c4ccccc4)cc23)cc1C1CCCC1 + O=C(c1cc(Cc2n[nH]c(=O)c3ccccc23)ccc1F)N1CCN(C(=O)C2CC2)CC1 [Olaparib] (partner 8 µM) show?
Response: 0.255

###

Quick list: relative viability per entry.
Tested on: SW 1573
Assay: relative viability (nuclei count vs DMSO), 5 days (fraction); higher = more cells survive
Details: first compound 0.253 µM
Response field accepts a number only; no unit should be typed.

Compound	relative viability
C=C1C(=O)O[C@@H](CCCCCCCC)[C@@H]1C(=O)O [C-75] + CCNC(=O)c1noc(-c2cc(C(C)C)c(O)cc2O)c1-c1ccc(CN2CCOCC2)cc1 [Luminespib] (partner 0.01 µM)	0.254
C=C1C(=O)O[C@@H](CCCCCCCC)[C@@H]1C(=O)O [C-75] + C[C@]1(O)C[C@@H](c2nc(-c3ccc4ccc(-c5ccccc5)nc4c3)c3c(N)nccn32)C1 [Linsitinib] (partner 1 µM)	0.962
C=C1C(=O)O[C@@H](CCCCCCCC)[C@@H]1C(=O)O [C-75] + CS(=O)(=O)CCNCc1ccc(-c2ccc3ncnc(Nc4ccc(OCc5cccc(F)c5)c(Cl)c4)c3c2)o1 [Lapatinib] (partner 2 µM)	1.14

Query: Can you look up the measured relative viability of C=C1C(=O)O[C@@H](CCCCCCCC)[C@@H]1C(=O)O [C-75] + CS(=O)(=O)N1CCN(Cc2cc3nc(-c4cccc5[nH]ncc45)nc(N4CCOCC4)c3s2)CC1 [Pictilisib] (partner 1 µM) for me?
Response: 0.511

Query: Any idea what relative viability was measured for Oc1nc(-c2ccc(C(F)(F)F)cc2)nc2c1CSCC2 [XAV939] + CS(=O)(=O)N1CCN(Cc2cc3nc(-c4cccc5[nH]ncc45)nc(N4CCOCC4)c3s2)CC1 [Pictilisib] (partner 1 µM) ?
Response: 0.403

Query: Fill in the blank: the reported relative viability of Oc1nc(-c2ccc(C(F)(F)F)cc2)nc2c1CSCC2 [XAV939] + CC(=O)Nc1cccc(-n2c(=O)n(C3CC3)c(=O)c3c(Nc4ccc(I)cc4F)n(C)c(=O)c(C)c32)c1 [Trametinib] (partner 0.02 µM) is ____.
Response: 0.545

Query: Look at this compound and give its reported relative viability. C=C1C(=O)O[C@@H](CCCCCCCC)[C@@H]1C(=O)O [C-75] + COc1cc2c(Oc3ccc(NC(=O)C4(C(=O)Nc5ccc(F)cc5)CC4)cc3F)ccnc2cc1OCCCN1CCOCC1 [Foretinib] (partner 0.25 µM)
Response: 0.943

###

Test system: RERF-LC-KJ
Assay: relative viability (nuclei count vs DMSO), 5 days (fraction); higher = more cells survive
Details: first compound 0.5 µM
Parameter: relative viability. Scope: all listed entries.
Give the figure by itself; no unit, no explanation.

# example entries with known answers
Compound	relative viability
CC1(C)CCC(c2ccc(Cl)cc2)=C(CN2CCN(c3ccc(C(=O)NS(=O)(=O)c4ccc(N[C@H](CCN5CCOCC5)CSc5ccccc5)c(S(=O)(=O)C(F)(F)F)c4)cc3)CC2)C1 [Navitoclax] + CS(=O)(=O)CCNCc1ccc(-c2ccc3ncnc(Nc4ccc(OCc5cccc(F)c5)c(Cl)c4)c3c2)o1 [Lapatinib] (partner 2 µM)	0.884
CC1(C)CCC(c2ccc(Cl)cc2)=C(CN2CCN(c3ccc(C(=O)NS(=O)(=O)c4ccc(N[C@H](CCN5CCOCC5)CSc5ccccc5)c(S(=O)(=O)C(F)(F)F)c4)cc3)CC2)C1 [Navitoclax] + Nc1ncn([C@H]2C[C@H](O)[C@@H](CO)O2)c(=O)n1 [Decitabine] (partner 2 µM)	0.708

Moving on to the next compound.
Query: So what does the record say about relative viability for CC1(C)CCC(c2ccc(Cl)cc2)=C(CN2CCN(c3ccc(C(=O)NS(=O)(=O)c4ccc(N[C@H](CCN5CCOCC5)CSc5ccccc5)c(S(=O)(=O)C(F)(F)F)c4)cc3)CC2)C1 [Navitoclax] + O=C(CCCCCCC(=O)Nc1ccccc1)NO [Vorinostat] (partner 1 µM) ?
Response: 0.622

###

Recorded relative viability by entry
Test system: NCI-H661
Test: relative viability (nuclei count vs DMSO), 5 days (fraction); higher = more cells survive
Details: first compound 0.08 µM
Number, no unit, nothing else.

Compound	Measure	Recorded value
Oc1nc(-c2ccc(C(F)(F)F)cc2)nc2c1CSCC2 [XAV939] + COc1cccc2cc(-c3nc([C@H]4CC[C@H](C(=O)O)CC4)n4ncnc(N)c34)[nH]c12 [OSI-027] (partner 0.5 µM)	relative viability	0.701

Query: Need relative viability, item Oc1nc(-c2ccc(C(F)(F)F)cc2)nc2c1CSCC2 [XAV939] + O=C(CCCCCCC(=O)Nc1ccccc1)NO [Vorinostat] (partner 1 µM)
Response: 0.807

Query: Consider the compound shown here: Oc1nc(-c2ccc(C(F)(F)F)cc2)nc2c1CSCC2 [XAV939] + CCNC(=O)c1noc(-c2cc(C(C)C)c(O)cc2O)c1-c1ccc(CN2CCOCC2)cc1 [Luminespib] (partner 0.01 µM) What is its recorded relative viability?
Response: 0.894

Query: Entry under review: Oc1nc(-c2ccc(C(F)(F)F)cc2)nc2c1CSCC2 [XAV939] + CS(=O)(=O)N1CCN(Cc2cc3nc(-c4cccc5[nH]ncc45)nc(N4CCOCC4)c3s2)CC1 [Pictilisib] (partner 1 µM) . Reported relative viability?
Response: 0.477

###

Tested on: SK-MES-1
Assay: relative viability (nuclei count vs DMSO), 5 days (fraction); higher = more cells survive
Settings: first compound 0.1265 µM
// values below are reported relative viability

Query: For the compound O=C(O)c1ccc(-c2c[nH]c3ncc(-c4ccccc4)cc23)cc1C1CCCC1 + CC1(C)CCC(c2ccc(Cl)cc2)=C(CN2CCN(c3ccc(C(=O)NS(=O)(=O)c4ccc(N[C@H](CCN5CCOCC5)CSc5ccccc5)c(S(=O)(=O)C(F)(F)F)c4)cc3)CC2)C1 [Navitoclax] (partner 0.5 µM) , what relative viability is on record?
Response: 1.24

###

// values below are reported relative viability
System: CAL-12T
Assay: relative viability (nuclei count vs DMSO), 5 days (fraction); higher = more cells survive
Conditions: first compound 0.253 µM
Lab note: record the figure alone, no unit after it.

See these solved cases before continuing.
Compound	Target desc	relative viability
Oc1nc(-c2ccc(C(F)(F)F)cc2)nc2c1CSCC2 [XAV939] + Cc1nc(Nc2ncc(C(=O)Nc3c(C)cccc3Cl)s2)cc(N2CCN(CCO)CC2)n1 [Dasatinib] (partner 0.075 µM)	CAL-12T	0.401
Oc1nc(-c2ccc(C(F)(F)F)cc2)nc2c1CSCC2 [XAV939] + C[C@@H](Oc1cc(-c2cnn(C3CCNCC3)c2)cnc1N)c1c(Cl)ccc(F)c1Cl [Crizotinib] (partner 1 µM)	CAL-12T	0.449

Query: Which value of relative viability has been reported for C=C1C(=O)O[C@@H](CCCCCCCC)[C@@H]1C(=O)O [C-75] + CC(=O)Nc1cccc(-n2c(=O)n(C3CC3)c(=O)c3c(Nc4ccc(I)cc4F)n(C)c(=O)c(C)c32)c1 [Trametinib] (partner 0.02 µM) in the records?
Response: 0.455

###

Test system: NCI-H2170
Assay: relative viability (nuclei count vs DMSO), 5 days (fraction); higher = more cells survive
Details: first compound 0.5 µM
Measure: relative viability
// return a plain number; no unit text

Molecule	relative viability
CC1(C)CCC(c2ccc(Cl)cc2)=C(CN2CCN(c3ccc(C(=O)NS(=O)(=O)c4ccc(N[C@H](CCN5CCOCC5)CSc5ccccc5)c(S(=O)(=O)C(F)(F)F)c4)cc3)CC2)C1 [Navitoclax] + CC(=O)Nc1cccc(-n2c(=O)n(C3CC3)c(=O)c3c(Nc4ccc(I)cc4F)n(C)c(=O)c(C)c32)c1 [Trametinib] (partner 0.02 µM)	0.874
CC1(C)CCC(c2ccc(Cl)cc2)=C(CN2CCN(c3ccc(C(=O)NS(=O)(=O)c4ccc(N[C@H](CCN5CCOCC5)CSc5ccccc5)c(S(=O)(=O)C(F)(F)F)c4)cc3)CC2)C1 [Navitoclax] + COc1cccc2cc(-c3nc([C@H]4CC[C@H](C(=O)O)CC4)n4ncnc(N)c34)[nH]c12 [OSI-027] (partner 0.5 µM)	0.551
CC1(C)CCC(c2ccc(Cl)cc2)=C(CN2CCN(c3ccc(C(=O)NS(=O)(=O)c4ccc(N[C@H](CCN5CCOCC5)CSc5ccccc5)c(S(=O)(=O)C(F)(F)F)c4)cc3)CC2)C1 [Navitoclax] + Cc1nc(Nc2ncc(C(=O)Nc3c(C)cccc3Cl)s2)cc(N2CCN(CCO)CC2)n1 [Dasatinib] (partner 0.075 µM)	0.574
CC1(C)CCC(c2ccc(Cl)cc2)=C(CN2CCN(c3ccc(C(=O)NS(=O)(=O)c4ccc(N[C@H](CCN5CCOCC5)CSc5ccccc5)c(S(=O)(=O)C(F)(F)F)c4)cc3)CC2)C1 [Navitoclax] + NC(=O)Nc1cc(-c2cccc(F)c2)sc1C(=O)N[C@H]1CCCNC1 [AZD7762] (partner 0.2 µM)	0.623

Read the next record carefully.
Query: Give its relative viability value. Item: CC1(C)CCC(c2ccc(Cl)cc2)=C(CN2CCN(c3ccc(C(=O)NS(=O)(=O)c4ccc(N[C@H](CCN5CCOCC5)CSc5ccccc5)c(S(=O)(=O)C(F)(F)F)c4)cc3)CC2)C1 [Navitoclax] + C[C@@H](Oc1cc(-c2cnn(C3CCNCC3)c2)cnc1N)c1c(Cl)ccc(F)c1Cl [Crizotinib] (partner 1 µM)
Response: 1.05
